B1: Twister Ribozyme (parent)
chain: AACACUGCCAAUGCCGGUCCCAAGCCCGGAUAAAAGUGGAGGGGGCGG

Variants of: B1
experiment: self-cleavage, relative activity (ratio to wild type); higher = more cleavage; co-transcriptional
property: self-cleavage

{"sequence_content": "AACACUGCCAAUGCCGGUCGCAAGCCCGGAUAAAAGUGGAGGGGGCGC [C20G G48C]", "test_result": 0.157}
{"sequence_content": "AACACUGCCAAUGCCGGCCCCAAGGCCGGAUAAAAGUGGAGGGGGCGG [U18C C25G]", "test_result": 0.104}
{"sequence_content": "AACACUGCCAAUGUCGGUCCCACGCCCGGAUAAAAGUGGAGGGGGCGG [C14U A23C]", "test_result": 0.51}
{"sequence_content": "AACACUGCCAAUGCCGGUCCCAAGCCCGGAUAAAAGUGGAGGGAGCCG [G44A G47C]", "test_result": 0.828}
{"sequence_content": "AACACUUCCAAUGCCGGUCCCCAGCCCGGAUAAAAGUGGAGGGGGCGG [G7U A22C]", "test_result": 0.11}
{"sequence_content": "AACCCUGCCAAUGCCGGUCGCAAGCCCGGAUAAAAGUGGAGGGGGCGG [A4C C20G]", "test_result": 0.0372}
{"sequence_content": "AACACUGCCAAGGCCGGUCCCAAGCCCGGAUAAAAGUCGAGGGGGCGG [U12G G38C]", "test_result": 0.881}
{"sequence_content": "AACACUGCCAAUGCCGGUCCCAAGCCCGCAUAGAAGUGGAGGGGGCGG [G29C A33G]", "test_result": 0.573}
{"sequence_content": "AACUCUGCCAAUGCCGGUCCCAAGCCCGGAUAAAAGUGGAUGGGGCGG [A4U G41U]", "test_result": 0.0632}
{"sequence_content": "AACACUGCCAAUGCCGGUCCCAAGCCCGGAUAAAAGCGGAGGUGGCGG [U37C G43U]", "test_result": 0.106}
{"sequence_content": "AACACUGCAAAUGCCGGUCCCAAGCCCGGAUAAUAGUGGAGGGGGCGG [C9A A34U]", "test_result": 0.535}
{"sequence_content": "AACACUGCCAAUGCCGGUCCCAAACCCGGAUAAAAGUGGAGGCGGCGG [G24A G43C]", "test_result": 0.107}
{"sequence_content": "AACACUGCCAAUGCCGGUCCCAAGCCCGGAUAAUAGUGGAGGGGGCGG [A34U]", "test_result": 0.915}
{"sequence_content": "CACACUGACAAUGCCGGUCCCAAGCCCGGAUAAAAGUGGAGGGGGCGG [A1C C8A]", "test_result": 0.196}
{"sequence_content": "AACACUGCCAGUGCAGGUCCCAAGCCCGGAUAAAAGUGGAGGGGGCGG [A11G C15A]", "test_result": 0.567}
{"sequence_content": "AACACUGCCAAUGCCGGUCCCAAGCCUGAAUAAAAGUGGAGGGGGCGG [C27U G29A]", "test_result": 0.687}
{"sequence_content": "AACACUGCCAAUGCCGGUCCCUAGUCCGGAUAAAAGUGGAGGGGGCGG [A22U C25U]", "test_result": 0.513}
{"sequence_content": "AACACCGCCAAUGCCGGUCCCAACCCCGGAUAAAAGUGGAGGGGGCGG [U6C G24C]", "test_result": 0.0688}
{"sequence_content": "AACACUGCUAAUGCCGGUCCCAAGUCCGGAUAAAAGUGGAGGGGGCGG [C9U C25U]", "test_result": 0.404}
{"sequence_content": "AACACUGCCAAUGCCGGUCCCAAGCCCGGUUAAACGUGGAGGGGGCGG [A30U A35C]", "test_result": 1.07}
{"sequence_content": "AGCACUGCCAAUGCCGGUCCCAAGCCCGGAUAAAAUUGGAGGGGGCGG [A2G G36U]", "test_result": 0.0889}
{"sequence_content": "AACACUGCCAAUGCCGGUCCCAAGUCCGGCUAAAAGUGGAGGGGGCGG [C25U A30C]", "test_result": 0.53}
